Assay: in vivo
Parameters: species or system BALB/c nude mice
Settings: mouse, Bladder uptake
Numbered stars: 1 amine (or outer) side, 2 acyl side, 3 side chain; on linkers, the order of the positions; unused ones are H or OH. Square brackets hold non-standard residues; d marks the D form. Peptide text beside a SMILES is read from it. * marks the point of attachment. DOTA = O=C(O)CN1CCN(CC(=O)O)CCN(CC(=O)*)CCN(CC(=O)O)CC1; d(γGlu) = O=C(O)[C@@H](CCC(=O)[*:2])N[*:1]; 1Nal = N[C@@H](Cc1cccc2ccccc12)C(=O)O; NMeNle = CCCC[C@H](NC)C(=O)O; PEG4 = NCCOCCOCCOCCOCCC(=O)O
outcome measure: tissue uptake at 0.5 h (%ID/g)
Answers are plain numbers, in %ID/g.

Complete the entry with tissue uptake at 0.5 h for CCCC[C@@H](C(=O)N[C@@H](CC(=O)O)C(=O)N[C@@H](Cc1cccc2ccccc12)C(N)=O)N(C)C(=O)[C@H](Cc1c[nH]c2ccccc12)NC(=O)CCOCCOCCOCCOCCNC(=O)CC[C@@H](NC(=O)CN1CCN(CC(=O)O)CCN(CC(=O)O)CCN(CC(=O)O)CC1)C(=O)O [[68Ga]Ga-DOTA-CCK-66, metal not drawn, reference compound] ({DOTA-d(γGlu)-PEG4}-W[NMeNle]D[1Nal]-NH2)
1.9
